system: T1, human DLL3 extracellular domain (ECD) with C-terminal 8xHis tag and Avi tag (human, UniProt Q9NYJ7 27-492)
T1 construct: extracellular domain; Expressed in Expi293, purified by IMAC and SEC; also called huDLL3; not shown: Avi tag
T1 sequence: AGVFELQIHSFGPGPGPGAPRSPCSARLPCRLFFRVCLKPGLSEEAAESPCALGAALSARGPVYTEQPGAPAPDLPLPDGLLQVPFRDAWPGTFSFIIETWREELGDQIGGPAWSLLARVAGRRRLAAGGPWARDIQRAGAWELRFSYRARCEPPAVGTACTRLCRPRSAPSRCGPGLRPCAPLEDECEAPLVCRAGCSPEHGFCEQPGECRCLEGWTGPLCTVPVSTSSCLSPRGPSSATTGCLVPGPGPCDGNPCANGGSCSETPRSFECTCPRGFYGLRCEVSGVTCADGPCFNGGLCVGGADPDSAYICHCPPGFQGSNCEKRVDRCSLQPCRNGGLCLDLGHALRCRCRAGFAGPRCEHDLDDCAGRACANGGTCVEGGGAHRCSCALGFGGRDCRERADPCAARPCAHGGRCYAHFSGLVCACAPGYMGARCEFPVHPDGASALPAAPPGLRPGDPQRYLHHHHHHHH
protocol.text: SPR (Biacore), 37 C; IgG captured on chip, human DLL3 ECD in solution; 1:1 Langmuir fit
Each record here notes measured Kd.
quantity.measured: Kd (µM)

{"columns": ["binder", "measured"],
 "data": [
  ["anti-DLL3 antibody 2G1 (IgG) (antibody, V domains shown, Full-length monoclonal antibody (IgG)) VH: QLQLQESGPGLVKPSETLSLTCTVSGGSISSSSYYWGWIRQPPGKGLEWIGSIYYSGNIYHNPSLKSRVSISVDTSKNQFSLRLSSVTAADTAVYYCAREIIVGATHFDYWGQGTLVTVSS VL: AIQMTQSPSSLSASVGDRVTITCRASQGIRNDLGWYQQKPGKAPELLIYAASSLQSGVPSRFSGSGSGTDFTLTISSLQPEDFATYYCLQDYNYPLTFGPGTKVDIK", 0.0381],
  ["anti-DLL3 antibody 2A6.C5 (IgG) (antibody, V domains shown, Full-length monoclonal antibody (IgG)) VH: QVQLQESGPGLVKPSETLSLTCTVSNVSISSYYWSWIRQPPGKGLEWIGYIYYSGTTNYNPSLKSRVTMSVDTSKNQFSLKLSSVTAADTAVYFCARLSNWGFAFDIWGQGTMVTFSS VL: EIVLTQSPGTLSLSPGERATLSCRASQTISSSYLAWYQQKPGQAPRLLIYGASSRATGIPDRFSGSGSGTEFTLTISRLEPEDFAVYYCQQYGWSPITFGQGTRLEIK", 0.0234],
  ["anti-DLL3 antibody 8E11 (IgG) (antibody, V domains shown, Full-length monoclonal antibody (IgG)) VH: QVQLQESGPGLVKPSETLSLTCTVSGDSISNYYWTWIRQPPGKGLEWIGYIYYSGTTNSNPSLKSRVTVSLDTSKSQFSLNLSSVTAADTAVYYCARVFNRGFAFDIWGQGTMVTVSS VL: EIVLTQSPGTLSLSPGERATLSCRASQRISNTYLAWYQQKPGQAPRLLIYGASSRATGIPDRFSGSGSGTDFTLTISRLEPEDFAAYYCQQYDTSPLTFGGGTKVEIK", 0.00586]
]}
